measurement_protocol: NCI Yeast Anticancer Drug Screen. Data for the cln2 rad14 strain (AID 165)
experimental_context: S. cerevisiae cln2 rad14 strain, at 50.0 µM
This is part of a sample that, as a whole, favours compounds with a hit. Of some 79,000 tested, about 15% had one in any assay. Calls of active or inactive are those of the source. No stated cut-off is given here; in the data, active means growth inhibition above about 70%; inactive means the rest.
Tick one outcome: active, inactive

>  <compound>
O=[N+]([O-])c1cccc(N=Cc2ccc(N(CCCl)CCCl)cc2)c1

>  <category>
inactive

$$$$

Prompt: Please share the test call associated with [Cl][Hg][Cl].c1ccc(CSc2ccccc2)cc1 .
Response: active

Prompt: CC[PH+](CC)CC.CC[PH+](CC)CC.[Au] , same question.
Response: active

Prompt: CCCN(CCC)c1c([N+](=O)[O-])cc(S(N)(=O)=O)cc1[N+](=O)[O-] , same question.
Response: active

Prompt: OC1CCCC[CH]1[Hg][Cl] (centres undefined) , same question.
Response: active

----------
measurement_protocol: NCI Yeast Anticancer Drug Screen. Data for the rad18 strain (AID 177)
experimental_context: S. cerevisiae rad18 mutant growth inhibition; at 33.0 µM; stronger effect = higher value
Compounds without any hit were thinned out: in the full panel of roughly 79,000, 15% have a hit.
# label = bin(measured growth inhibition), where bins are bottom range: < 40%; center range: ≥ 40% and < 90%; top range: ≥ 90%

Example entries begin here.
>  <molecule>
CCC1(OC(=O)CN)C(=O)OCc2c1cc1n(c2=O)Cc2cc3ccccc3nc2-1 (stereo not given)

>  <category>
center range

$$$$
>  <molecule>
c1c(N2CCOCC2)ssc1=[N+]1CCOCC1

>  <category>
bottom range

$$$$

Prompt: Returns: class label. Input: Cc1c2ccccc2cc2ccccc12
Response: top range

Prompt: CCNCC(=O)O[C@]1(CC)C(=O)OCc2c1cc1n(c2=O)Cc2cc3ccccc3nc2-1 , same question.
Response: bottom range

Prompt: C/C(=N\N=C(N)N)C(CN1CCOCC1)C(c1ccccc1)c1c(O)c2ccccc2oc1=O (stereo not given) , same question.
Response: bottom range

Prompt: O=C1C=CC(=O)C1(Br)Br , same question.
Response: top range

Prompt: COc1cc(C2c3cc4c(cc3[C@@H](Nc3ccc(N)cc3)C3COC(=O)[C@H]23)OCO4)cc(OC)c1O (stereo not given in full) , same question.
Response: top range

Prompt: C[C@]12CCC3[C@@H](CC[C@@H]4c5nonc5CC[C@]34C)C1CCC2=O (stereo not given in full) , same question.
Response: center range

Prompt: COC1CC(CC2CCC(C)C(C(C)C(=O)O)O2)OC2(OC(C)(C3CCC(C)(C4OC(C5OC(O)(CO)C(C)CC5C)CC4C)O3)CC2C)C1C (stereo not given) , same question.
Response: top range

Prompt: CC1(C)N=C(N)N=C(N)N1c1cccc(N)c1.[Sn] , same question.
Response: bottom range

Prompt: COc1cccc2c1C(=O)c1c(O)c3c(c(O)c1C2=O)C[C@@](O)(/C(C)=N\O)C[C@@H]3OC1CC(N)C(O)C(C)O1 (stereo not given in full) , same question.
Response: center range

Prompt: CC[C@@]1(O)C(=O)OCc2c1cc1n(c2=O)Cc2cc3c(NC(=O)CN)cccc3nc2-1 , same question.
Response: bottom range

Prompt: CS(=O)(=O)OCCN(CCOS(C)(=O)=O)c1ccc(C=O)cc1 , same question.
Response: top range

Prompt: Cc1c([N+](=O)[O-])oc2ccc3ccccc3c12 , same question.
Response: top range

Prompt: CN(N=O)C(=O)NNC(=O)N(C)N=O , same question.
Response: top range

Cited source for all entries: PubChem BioAssay (NCI)
